src = patent US6001988

# Tgt: T1, L-selectin (LS-Rg) (Homo sapiens, UniProt P14151 P14151:39-332)
# T1 chain: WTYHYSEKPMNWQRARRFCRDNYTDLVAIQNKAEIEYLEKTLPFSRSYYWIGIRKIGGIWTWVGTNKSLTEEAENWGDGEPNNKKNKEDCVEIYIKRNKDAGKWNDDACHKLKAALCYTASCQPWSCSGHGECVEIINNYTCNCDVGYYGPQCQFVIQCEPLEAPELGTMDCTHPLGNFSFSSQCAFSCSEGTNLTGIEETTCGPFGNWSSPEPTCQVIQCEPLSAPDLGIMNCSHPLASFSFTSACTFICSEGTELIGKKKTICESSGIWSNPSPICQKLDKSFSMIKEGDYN
# Test Name: filter; room temp; 2.1 nM at 37 C
# Experimental Parameters: tags: human IgG2 Fc fusion (provided by A. Varki); label: 32P
Endpoint Label: pKd
# pKd: negative log10 of molar concentration; output just the value

Task item: Report pKd, nothing else, for this binder: 122 (ssDNA) DNA: CTACCTACGATCTGACTAGCGCAACGTGGCCCCGTTTAGCTCATTTGACCGTTCCATCCGGCTTACTCTCATGTAGTTCC
Reply: 8.74
